- target: p38 (Homo sapiens, UniProt Q16539)
- Sequence (Q16539 whole entry): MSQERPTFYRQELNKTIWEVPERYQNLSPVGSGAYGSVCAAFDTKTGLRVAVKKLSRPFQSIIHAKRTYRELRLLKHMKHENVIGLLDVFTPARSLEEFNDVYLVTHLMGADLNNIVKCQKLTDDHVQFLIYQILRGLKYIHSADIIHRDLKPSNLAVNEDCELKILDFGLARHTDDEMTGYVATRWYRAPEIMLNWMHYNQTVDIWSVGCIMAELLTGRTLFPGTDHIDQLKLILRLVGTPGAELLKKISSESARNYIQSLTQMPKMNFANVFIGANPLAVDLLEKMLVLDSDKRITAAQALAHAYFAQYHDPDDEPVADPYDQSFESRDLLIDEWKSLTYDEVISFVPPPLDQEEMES
- protocol: p38 inhibition assay: inhibition of phosphorylation of EGF receptor peptide
- test parameters: activated p38 (5 nM), EGF receptor peptide 200 μM, ATP 100 μM, 30 min at 30° C., pH 7.6, HPLC
compounds and their reported pIC50
pIC50 field: float, defined as -log10 of concentration (mol/L).

Examples with their reported pIC50 follow.
q: Could you share which pIC50 value was measured for Cc1cc(C)c(NC(=O)Nc2ccccc2)cc1C ?
a: 5.38

q: Quick one: COc1cc(C)cc(NC(=O)Nc2ccc(Cl)c(Cl)c2)c1
a: 4.83

q: Quick one: O=C(Nc1ccc(Cl)c(Cl)c1)Nc1ccc2c(c1)OCCO2
a: 5.25

Further cases:
q: Could you share which pIC50 value was measured for COc1cc(OC)c(NC(=O)Nc2ccccc2F)cc1Cl ?
a: 6.30

q: Quick one: O=C(Nc1ccc(Cl)c(Cl)c1)Nc1ccc(Br)cc1C(=O)O
a: 5.08

q: Quick one: O=C(Nc1ccccc1)Nc1ccc(Cl)c(Cl)c1
a: 5.25

q: Quick one: COc1cc(OC)c(NC(=O)Nc2ccccc2)cc1Cl [Compound 12]
a: 6.42

q: Quick one: COc1cc(OC)c(NC(=O)Nc2ccc(Cl)cc2F)cc1Cl
a: 5.92

q: Quick one: COc1cc(OC)c(NC(=O)N(CC(=O)O)c2ccccc2)cc1Cl
a: 4.72

q: Quick one: COc1cc(Cl)c(C)cc1NC(=O)Nc1ccccc1 [Compound 61]
a: 6.85

q: Quick one: COC(=O)c1ccccc1NC(=O)Nc1ccc(Cl)c(Cl)c1
a: 5.20
